Reference source: ChEMBL document CHEMBL1155459

// pKi lookup, one value per entry
Target: Procathepsin L (Bos taurus, UniProt P25975)
Sequence (P25975 whole entry): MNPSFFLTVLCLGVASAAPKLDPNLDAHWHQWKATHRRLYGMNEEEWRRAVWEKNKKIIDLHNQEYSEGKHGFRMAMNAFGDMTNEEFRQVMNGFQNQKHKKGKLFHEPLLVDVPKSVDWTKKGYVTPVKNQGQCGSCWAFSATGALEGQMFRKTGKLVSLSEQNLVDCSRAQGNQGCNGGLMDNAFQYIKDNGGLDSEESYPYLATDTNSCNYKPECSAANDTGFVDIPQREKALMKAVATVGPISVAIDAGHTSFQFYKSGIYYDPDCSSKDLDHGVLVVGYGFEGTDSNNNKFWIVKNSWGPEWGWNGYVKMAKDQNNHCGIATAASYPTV
pKi: −log10 of the molar value. Peptide text beside a SMILES is read from it.
readout: pKi

CC(=O)NC[C@H](NC(=O)/C=C/C(=O)NCC(=O)NCC(=O)N[C@@H](Cc1ccccc1)C(=O)O)C(=O)N[C@@H](CC(C)C)C(=O)N[C@@H](C)C(=O)N[C@H](C(N)=O)C(C)C (HELM PEPTIDE1{[O=C(/C=C/C(=O)[*:2])NCC(=O)NCC(=O)N[C@@H](Cc1ccccc1)C(=O)O].[O=C([C@H](CN[*:3])N[*:1])[*:2]].L.A.V.[am]}|PEPTIDE2{[ac]}$PEPTIDE1,PEPTIDE2,2:R3-1:R2$$$V2.0); 4.68
CC(C)C[C@H](NC(=O)[C@H](C)NC(=O)/C=C/C(=O)N[C@@H](C)C(=O)NCC(=O)N[C@@H](Cc1ccccc1)C(=O)O)C(=O)N[C@@H](CC(C)C)C(=O)N[C@H](C(N)=O)C(C)C (HELM PEPTIDE1{[C[C@H](NC(=O)/C=C/C(=O)[*:2])C(=O)NCC(=O)N[C@@H](Cc1ccccc1)C(=O)O].A.L.L.V.[am]}$$$$V2.0); 4.47
CC(C)[C@H](NC(=O)[C@@H](NC(=O)[C@@H](NC(=O)[C@H](CC(N)=O)NC(=O)/C=C/C(=O)NCC(=O)NCC(=O)N[C@@H](Cc1ccccc1)C(=O)O)C1CCCCC1)C(C)C)C(N)=O (HELM PEPTIDE1{[O=C(/C=C/C(=O)[*:2])NCC(=O)NCC(=O)N[C@@H](Cc1ccccc1)C(=O)O].N.[O=C([C@@H](N[*:1])C1CCCCC1)[*:2]].V.V.[am]}$$$$V2.0); 4.43
CC(C)C[C@H](NC(=O)[C@H](Cc1ccccc1)NC(=O)/C=C/C(=O)NCC(=O)NCC(=O)N[C@@H](Cc1ccccc1)C(=O)O)C(=O)N[C@@H](CC(C)C)C(=O)N[C@H](C(N)=O)C(C)C (HELM PEPTIDE1{[O=C(/C=C/C(=O)[*:2])NCC(=O)NCC(=O)N[C@@H](Cc1ccccc1)C(=O)O].F.L.L.V.[am]}$$$$V2.0); 4.46
CC(C)C[C@H](NC(=O)[C@H](C)NC(=O)/C=C/C(=O)NCC(=O)NCC(=O)N[C@@H](Cc1ccccc1)C(=O)O)C(=O)N[C@@H](CC(C)C)C(=O)N[C@H](C(N)=O)C(C)C (HELM PEPTIDE1{[O=C(/C=C/C(=O)[*:2])NCC(=O)NCC(=O)N[C@@H](Cc1ccccc1)C(=O)O].A.L.L.V.[am]}$$$$V2.0); 4.51
CC(=O)NC[C@H](NC(=O)/C=C/C(=O)NCC(=O)NCC(=O)N[C@@H](Cc1ccccc1)C(=O)O)C(=O)N[C@@H](CC(C)C)C(=O)N[C@@H](CC(C)C)C(=O)N[C@H](C(N)=O)C(C)C (HELM PEPTIDE1{[O=C(/C=C/C(=O)[*:2])NCC(=O)NCC(=O)N[C@@H](Cc1ccccc1)C(=O)O].[O=C([C@H](CN[*:3])N[*:1])[*:2]].L.L.V.[am]}|PEPTIDE2{[ac]}$PEPTIDE1,PEPTIDE2,2:R3-1:R2$$$V2.0); 4.40
